B1: Ankyrin-3, residues 4094 to 4171; numbered along this chain, Q12955 (parent)
chain: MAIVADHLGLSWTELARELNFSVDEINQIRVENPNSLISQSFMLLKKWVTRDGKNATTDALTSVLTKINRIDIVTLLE

Variants of: B1
Experiment: abundance fitness (aPCA) (normalised: wild type 0, dead -1); higher = more abundant; growth selection in yeast, the domain comes from the species named
Conditions: Homo sapiens
Criterion: abundance fitness meeting or surpassing -0.1. Met: true. Not met: false.

Worked examples, 8 variants total:
[[record]]
mutant_name = "D72R"
group_label = "false"

[[record]]
mutant_name = "D52A"
group_label = "false"

[[record]]
mutant_name = "L44W"
group_label = "false"

[[record]]
mutant_name = "L76I"
group_label = "true"

[[record]]
mutant_name = "V23S"
group_label = "true"

[[record]]
mutant_name = "S41T"
group_label = "false"

[[record]]
mutant_name = "R30K"
group_label = "true"

[[record]]
mutant_name = "T13M"
group_label = "true"


Does `Q40A` have a reported abundance fitness of at least -0.1?
true

Does `I26V` have a reported abundance fitness of at least -0.1?
true

Does `S36H` have a reported abundance fitness of at least -0.1?
false

Does `A16L` have a reported abundance fitness of at least -0.1?
false
